B1: C8orf76 (parent)
chain: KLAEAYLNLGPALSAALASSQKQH

variants of: B1; assay: protein stability index of a GFP-peptide fusion (GPS, HEK-293T) (PSI 1-6); higher = more stable; settings: c terminus: a fixed tail appended;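 also: lentivirally expressed fusions sorted by FACS into six bins by GFP to DsRed ratio, PSI derived from sequencing read proportions per bin multiplied by bin number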
propertyLabel: protein stability index
Please respond with just the number, no unit label.

L17R ... 2.45
L9M ... 2.36
L2E ... 3.62

For the variant "L9K" , what protein stability index is on record?
3.11

For the variant "L7E" , what protein stability index is on record?
2.65

For the variant "A16T" , what protein stability index is on record?
2.12
